target: 5-hydroxytryptamine receptor 1A (Rattus norvegicus, UniProt P19327); assay: Compound was evaluated for its binding affinity against 5-hydroxytryptamine 1A receptor from rat cerebral cortex; format: tissue-based
Sequence (P19327 whole entry): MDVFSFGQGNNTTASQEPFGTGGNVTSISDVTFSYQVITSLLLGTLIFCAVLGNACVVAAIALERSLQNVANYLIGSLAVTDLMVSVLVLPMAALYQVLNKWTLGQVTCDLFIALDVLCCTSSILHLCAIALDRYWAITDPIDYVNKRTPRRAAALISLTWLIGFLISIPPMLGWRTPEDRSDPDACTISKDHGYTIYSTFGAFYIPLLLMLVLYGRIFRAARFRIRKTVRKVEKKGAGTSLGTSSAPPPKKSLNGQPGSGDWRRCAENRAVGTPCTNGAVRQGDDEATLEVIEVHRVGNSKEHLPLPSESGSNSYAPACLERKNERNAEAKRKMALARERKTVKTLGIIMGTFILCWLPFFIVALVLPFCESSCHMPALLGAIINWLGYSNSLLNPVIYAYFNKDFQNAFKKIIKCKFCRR
Reported pKi values follow for various molecules
Friendly reminder that pKi comes from taking -log10 of the concentration in mol/L.

Consider the worked cases shown below.
smiles.data	result.number
CC(C)Oc1ccccc1N1CCN(Cc2cccc(C(=O)N3CCOCC3)c2)CC1	8.49
O=C(c1cccc(CN2CCN(c3ncccn3)CC2)c1)N1CCCCC1	7.92

Supply pKi measured with 5-hydroxytryptamine receptor 1A (Rattus norvegicus, UniProt P19327) for CC(C)Oc1ccccc1N1CCN(Cc2cccc(C(=O)N3CCCCCCC3)c2)CC1 . 9.89

Supply pKi measured with 5-hydroxytryptamine receptor 1A (Rattus norvegicus, UniProt P19327) for CCCc1ccccc1N1CCN(Cc2cccc(C(=O)N3CCCCC3)c2)CC1 . 8.04

Supply pKi measured with 5-hydroxytryptamine receptor 1A (Rattus norvegicus, UniProt P19327) for CC(C)Oc1ccccc1N1CCN(Cc2cccc(C(=S)N3CCCCC3)c2)CC1 . 8.96

Supply pKi measured with 5-hydroxytryptamine receptor 1A (Rattus norvegicus, UniProt P19327) for CC(C)Oc1ccccc1N1CCN(Cc2cccc(C(=O)N3CCCCCC3)c2)CC1 . 9.22

Supply pKi measured with 5-hydroxytryptamine receptor 1A (Rattus norvegicus, UniProt P19327) for CC(C)Oc1ccccc1N1CCN(Cc2cccc(C(=O)N3CCCCC3=O)c2)CC1 . 8.41

Supply pKi measured with 5-hydroxytryptamine receptor 1A (Rattus norvegicus, UniProt P19327) for O=C(c1cccc(CN2CCN(c3ccccc3C(F)(F)F)CC2)c1)N1CCCCC1 . 9.10

Supply pKi measured with 5-hydroxytryptamine receptor 1A (Rattus norvegicus, UniProt P19327) for CC(C)Oc1ccccc1N1CCN(Cc2cccc(C(=O)NC3CCCCC3)c2)CC1 . 8.39

----------
target: Adrenergic receptor alpha-1 (Rattus norvegicus, UniProt P15823+P23944+P43140); experiment: Binding affinity against Alpha-1 adrenergic receptor from rat cerebral cortex; format: tissue-based
Reported Ki values follow for various compounds
The figure you give is taken to be in nM; do not add the unit.

smiles.data	unit.name	Ki
CC(C)Oc1ccccc1C1(O)CCN(Cc2cccc(C(=O)N3CCCCC3)c2)CC1	nM	110
CC(C)Oc1ccccc1N1CCN(Cc2cccc(C(=O)N3CCCCC3=O)c2)CC1	nM	6.4

Supply Ki value. Item: CC(C)Oc1ccccc1N1CCN(Cc2cccc(S(=O)(=O)N3CCCCC3)c2)CC1 6.7

----------
Reported Ki values follow for various compounds
Biological target: Adrenergic receptor alpha-1 (Rattus norvegicus, UniProt P15823+P23944+P43140)
Sequence (P15823 whole entry): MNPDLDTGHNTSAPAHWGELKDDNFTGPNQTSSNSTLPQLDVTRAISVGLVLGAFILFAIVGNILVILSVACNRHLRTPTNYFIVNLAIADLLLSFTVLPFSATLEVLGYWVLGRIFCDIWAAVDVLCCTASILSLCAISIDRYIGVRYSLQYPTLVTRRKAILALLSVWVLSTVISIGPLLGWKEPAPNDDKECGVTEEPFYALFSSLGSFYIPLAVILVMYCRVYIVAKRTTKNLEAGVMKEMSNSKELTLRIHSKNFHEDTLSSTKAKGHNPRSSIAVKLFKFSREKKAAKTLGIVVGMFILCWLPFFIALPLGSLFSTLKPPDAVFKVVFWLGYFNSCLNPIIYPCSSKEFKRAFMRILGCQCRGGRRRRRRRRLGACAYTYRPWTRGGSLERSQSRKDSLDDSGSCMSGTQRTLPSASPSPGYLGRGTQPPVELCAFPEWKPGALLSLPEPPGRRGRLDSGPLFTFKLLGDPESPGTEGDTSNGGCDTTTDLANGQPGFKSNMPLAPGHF
Sequence (P23944 whole entry): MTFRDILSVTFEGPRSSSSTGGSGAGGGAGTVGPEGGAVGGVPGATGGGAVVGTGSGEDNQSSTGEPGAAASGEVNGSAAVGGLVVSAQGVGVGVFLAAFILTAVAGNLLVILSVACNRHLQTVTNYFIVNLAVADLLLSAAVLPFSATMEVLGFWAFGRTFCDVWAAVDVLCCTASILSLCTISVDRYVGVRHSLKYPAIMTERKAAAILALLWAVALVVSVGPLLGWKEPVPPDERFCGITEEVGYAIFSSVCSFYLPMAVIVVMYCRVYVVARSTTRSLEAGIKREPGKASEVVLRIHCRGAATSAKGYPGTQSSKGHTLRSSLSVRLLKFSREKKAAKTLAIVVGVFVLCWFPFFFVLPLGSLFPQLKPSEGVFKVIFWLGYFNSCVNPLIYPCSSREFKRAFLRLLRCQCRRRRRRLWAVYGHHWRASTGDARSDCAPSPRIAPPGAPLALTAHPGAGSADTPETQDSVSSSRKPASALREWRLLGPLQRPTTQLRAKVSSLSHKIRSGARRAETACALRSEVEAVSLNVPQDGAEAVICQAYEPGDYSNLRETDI
Sequence (P43140 whole entry): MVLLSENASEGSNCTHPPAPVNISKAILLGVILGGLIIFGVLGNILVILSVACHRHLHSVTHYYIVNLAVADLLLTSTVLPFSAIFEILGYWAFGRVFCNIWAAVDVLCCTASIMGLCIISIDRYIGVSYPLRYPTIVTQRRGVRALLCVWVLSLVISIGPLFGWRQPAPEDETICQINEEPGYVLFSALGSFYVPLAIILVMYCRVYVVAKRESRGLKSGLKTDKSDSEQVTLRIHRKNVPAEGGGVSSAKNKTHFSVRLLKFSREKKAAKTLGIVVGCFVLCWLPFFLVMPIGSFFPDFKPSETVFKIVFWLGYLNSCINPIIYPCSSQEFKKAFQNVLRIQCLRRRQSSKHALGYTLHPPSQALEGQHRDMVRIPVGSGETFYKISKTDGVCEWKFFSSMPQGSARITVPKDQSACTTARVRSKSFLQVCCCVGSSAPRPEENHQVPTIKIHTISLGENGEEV
Assay: Binding affinity against Alpha-1 adrenergic receptor from rat cerebral cortex
Assay type: tissue-based
The figure you give is taken to be in nM; do not add the unit.

Consider the worked cases shown below.
smiles.data	tested.system	unit.name	Ki
CC(C)Oc1ccccc1N1CCN(Cc2cccc(C(=O)N3CCOCC3)c2)CC1	Adrenergic receptor alpha-1 (Rattus norvegicus, UniProt P15823+P23944+P43140)	nM	29
CC(C)Oc1ccccc1N1CCN(Cc2cccc(C(=O)N(C)C3CCCCC3)c2)CC1	Adrenergic receptor alpha-1 (Rattus norvegicus, UniProt P15823+P23944+P43140)	nM	1.2
CCOc1ccccc1N1CCN(Cc2cccc(C(=O)N3CCCCCC3)c2)CC1	Adrenergic receptor alpha-1 (Rattus norvegicus, UniProt P15823+P23944+P43140)	nM	8.2

Supply Ki measured with Adrenergic receptor alpha-1 (Rattus norvegicus, UniProt P15823+P23944+P43140) for O=C(c1cccc(CN2CCN(c3ccccc3C(F)(F)F)CC2)c1)N1CCCCC1 . 3.3

Supply Ki measured with Adrenergic receptor alpha-1 (Rattus norvegicus, UniProt P15823+P23944+P43140) for CC(C)Oc1ccccc1N1CCN(Cc2cccc(C(=O)N3CCCCCCC3)c2)CC1 . 1.9

Supply Ki measured with Adrenergic receptor alpha-1 (Rattus norvegicus, UniProt P15823+P23944+P43140) for O=C(c1cccc(CN2CCN(c3ccccc3Cl)CC2)c1)N1CCCCC1 . 16

Supply Ki measured with Adrenergic receptor alpha-1 (Rattus norvegicus, UniProt P15823+P23944+P43140) for CC(C)Oc1ccccc1N1CCN(Cc2cccc(C(=O)N3CCCCCC3)c2)CC1 . 2.1
